Consider the following molecules; for each one, report its Euclidean distance.
# Tested on: 786-O
# Method notes: Euclidean distance of Cell Painting phenotypic profile (signed KS, 77 features) to DMSO centroid (dimensionless distance); 5 or 10 uM (library dependent); higher = stronger phenotypic change vs DMSO (phenoactivity)
# Run parameters: 48 h

The cases that follow already have their Euclidean distance on record.
[
  {
    "Molecule": "C=C[C@@]1(C)CC(=O)[C@]2(O)[C@@]3(C)[C@@H](O)CCC(C)(C)[C@@H]3[C@H](O)[C@H](OC(C)=O)[C@@]2(C)O1",
    "Euclidean distance": 1.79
  },
  {
    "Molecule": "CCCCC(=O)O[C@]1(C(=O)CO)[C@@H](C)C[C@H]2[C@@H]3CCC4=CC(=O)C=C[C@]4(C)[C@@]3(F)[C@@H](O)C[C@@]21C [Betamethasone Valerate]",
    "Euclidean distance": 1.33
  }
]

Next item in the queue.
IN: Find the recorded Euclidean distance belonging to CC(=O)OCC1=C(C(=O)O)N2C(=O)[C@@H](NC(=O)CSC(=NC(C)C)NC(C)C)[C@H]2SC1 and report it.
OUT: 1.48

----------
# Test system: DU145
# Method notes: Euclidean distance of Cell Painting phenotypic profile (signed KS, 77 features) to DMSO centroid (dimensionless distance); 5 or 10 uM (library dependent); higher = stronger phenotypic change vs DMSO (phenoactivity)
# Run parameters: 48 h
Where a name gives a salt, the structure may show the parent alone.
Provide the reported Euclidean distance of each item.
One number for each entry.

Examples with answers:
[
  {
    "Compound": "CC(C)c1nc(CN(C)C(=O)N[C@H](C(=O)N[C@@H](Cc2ccccc2)C[C@H](O)[C@H](Cc2ccccc2)NC(=O)OCc2cncs2)C(C)C)cs1 [Ritonavir]",
    "Experimental target": "DU145",
    "Euclidean distance": 1.08
  },
  {
    "Compound": "NCC[C@H](O)C(=O)N[C@@H]1C[C@H](N)[C@@H](O[C@H]2O[C@H](CN)[C@@H](O)[C@H](O)[C@H]2O)[C@H](O)[C@H]1O[C@H]1O[C@H](CO)[C@@H](O)[C@H](N)[C@H]1O [Amikacin hydrate]",
    "Experimental target": "DU145",
    "Euclidean distance": 0.584
  },
  {
    "Compound": "C1CNCCN1 [Piperazine]",
    "Experimental target": "DU145",
    "Euclidean distance": 0.846
  },
  {
    "Compound": "C#C[C@]1(O)CC[C@H]2[C@@H]3CCc4cc(OC)ccc4[C@H]3CC[C@@]21C [Mestranol]",
    "Experimental target": "DU145",
    "Euclidean distance": 0.785
  }
]

Look at each compound and report its Euclidean distance.
1. Cc1ccc(NC(=O)C2(c3ccc4c(c3)OC(F)(F)O4)CC2)nc1-c1cccc(C(=O)O)c1 [VX-809 (Lumacaftor)]
2. C=C[C@H]1CN2CC[C@H]1C[C@@H]2[C@@H](O)c1ccnc2ccc(OC)cc12 [Quinidine sulfate]
3. COc1ccccc1O [Guaiacol]

OUT:
1.55
1.08
0.891

----------
Task for the reader: assign each of the following molecules its reported Euclidean distance.
# Test system: 786-O
# Method notes: Euclidean distance of Cell Painting phenotypic profile (signed KS, 77 features) to DMSO centroid (dimensionless distance); 5 or 10 uM (library dependent); higher = stronger phenotypic change vs DMSO (phenoactivity)
# Run parameters: 48 h
Counter-ions that a name gives are not always drawn.
Answers are plain numbers.

# example entries with known answers
[
  {
    "Molecule": "CCN(CC)CCOC(=O)c1ccc(N)cc1 [Procaine HCl]",
    "Property label": "Euclidean distance",
    "Observed value": 0.661
  },
  {
    "Molecule": "Cc1cc(-n2c(=O)[nH]c(=O)n(C)c2=O)ccc1Oc1ccc(SC(F)(F)F)cc1",
    "Property label": "Euclidean distance",
    "Observed value": 1.07
  },
  {
    "Molecule": "CC1=NN(c2ccc(C)c(C)c2)C(=O)/C1=N\\Nc1cccc(-c2cccc(C(=O)O)c2)c1O [Eltrombopag Olamine]",
    "Property label": "Euclidean distance",
    "Observed value": 1.58
  },
  {
    "Molecule": "CN(C)c1ccc(-c2nc3ncc(Cl)c(N4CCN(CC(=O)Nc5nccs5)CC4)c3[nH]2)cc1",
    "Property label": "Euclidean distance",
    "Observed value": 1.74
  },
  {
    "Molecule": "Cn1c(=O)c2[nH]c(Br)nc2n(C)c1=O",
    "Property label": "Euclidean distance",
    "Observed value": 0.794
  }
]

Provide Euclidean distance values for the following items, in order.
1. CC/C(=C(\c1ccc(O)cc1)c1ccc(OCCN(C)C)cc1)c1ccccc1 [4-Hydroxytamoxifen]
2. CCNC(=O)[C@@H]1CCCN1C(=O)[C@H](CCCNC(=N)N)NC(=O)[C@H](CC(C)C)NC(=O)[C@@H](CC(C)C)NC(=O)[C@H](Cc1ccc(O)cc1)NC(=O)[C@H](CO)NC(=O)[C@H](Cc1c[nH]c2ccccc12)NC(=O)[C@H](Cc1c[nH]cn1)NC(=O)[C@@H]1CCC(=O)N1 [Leuprorelin Acetate]
3. CC1(C)O[C@@H]2C[C@H]3[C@@H]4C[C@H](F)C5=CC(=O)C=C[C@]5(C)[C@@]4(F)[C@@H](O)C[C@]3(C)[C@]2(C(=O)CO)O1 [Fluocinolone Acetonide]
4. COC(=O)OCOc1c2n(ccc1=O)N([C@@H]1c3ccccc3SCc3c1ccc(F)c3F)[C@@H]1COCCN1C2=O
5. COc1ncnc(NS(=O)(=O)c2ccc(N)cc2)c1OC

OUT:
[3.21, 1.85, 1.43, 0.818, 0.66]

Dear colleague, could you send me Euclidean distance for each of the items below? Thanks.
1. C[C@H](Nc1ncnc2nc[nH]c12)c1cc2cccc(Cl)c2c(=O)n1-c1ccccc1
2. CC1(C)S[C@@H]2[C@H](NC(=O)Cc3ccccc3)C(=O)N2[C@H]1C(=O)O [Penicillin G Sodium]
3. c1ccc2c(c1)CCCC2C1=NCCN1 (stereo not given)

OUT:
[2.36, 1.04, 1.41]
